# Test system: Nannizzia gypsea
# method: Antidermatophytic activity against Microsporum gypseum NCPF 580 after 7 days by broth microdilution method
# Format: functional
# recorded.conditions: NCPF 580, 168 h
measure.name: log10(MIC) (log10 of the value in µg/mL)

| compound | log10(MIC) |
| --- | --- |
| O=c1cc(CCl)oc(CN2CCN(C3CCCCC3)CC2)c1O | 1.20 |
| O=c1cc(CCl)oc(CN2CCN(Cc3cc(F)ccc3F)CC2)c1O | 0.60 |
| Cc1ccccc1CN1CCN(Cc2oc(CCl)cc(=O)c2O)CC1 | 1.20 |
| CC(=O)c1ccc(N2CCN(Cc3oc(CCl)cc(=O)c3O)CC2)cc1 | 1.20 |
| O=c1cc(CCl)oc(CN2CCN(c3ccc(F)cc3)CC2)c1O | 0.90 |
| Cc1cccc(CN2CCN(Cc3oc(CCl)cc(=O)c3O)CC2)c1 | 1.20 |
| COC1=CC(=O)C[C@@H](C)[C@]12Oc1c(Cl)c(OC)cc(OC)c1C2=O | -0.30 |
| N#CC1(c2ccccc2)CCN(Cc2oc(CCl)cc(=O)c2O)CC1 | 1.20 |
| CN(C/C=C/C#CC(C)(C)C)Cc1cccc2ccccc12 | -0.60 |
| O=c1cc(CCl)oc(CN2CCN(Cc3cccc(C(F)(F)F)c3)CC2)c1O | 0.60 |
| O=c1cc(CCl)oc(CN2CC=C(c3ccccc3)CC2)c1O | 0.90 |
| O=c1cc(CCl)oc(CN2CCN(c3ccccc3)CC2)c1O | 0.90 |
| O=c1cc(CCl)oc(CN2CC=C(c3ccc(Cl)cc3)CC2)c1O | 0.90 |
| O=C(OCc1ccccc1)N1CCN(Cc2oc(CCl)cc(=O)c2O)CC1 | 0.60 |
| O=c1cc(CCl)oc(CN2CCN(CC3CCCCC3)CC2)c1O | 0.60 |
| O=c1cc(CCl)oc(CN2CC=C(c3ccc(F)cc3)CC2)c1O | 1.20 |
| O=c1cc(CCl)oc(CN2CCN(c3ccccc3F)CC2)c1O | 0.90 |
| CCC(C)n1ncn(-c2ccc(N3CCN(c4ccc(OCC5COC(Cn6cncn6)(c6ccc(Cl)cc6Cl)O5)cc4)CC3)cc2)c1=O (centres undefined) | -0.90 |
| O=C(C1CCCCC1)N1CCN(Cc2oc(CCl)cc(=O)c2O)CC1 | 1.20 |
| O=c1cc(CCl)oc(CN2CCN(Cc3ccc(Cl)cc3)CC2)c1O | 0.60 |
| Cc1ccccc1N1CCN(Cc2oc(CCl)cc(=O)c2O)CC1 | 1.20 |
| Cc1ccc(N2CCN(Cc3oc(CCl)cc(=O)c3O)CC2)cc1 | 0.60 |
| O=c1cc(CCl)oc(CN2CCN(c3ccc(C(F)(F)F)cc3)CC2)c1O | 1.51 |
| O=c1cc(CCl)oc(CN2CCN(Cc3ccccc3)CC2)c1O | 1.20 |
| O=c1cc(CCl)oc(CN2CCN(Cc3c(Cl)cccc3Cl)CC2)c1O | 0.60 |
| O=c1cc(CCl)oc(CN2CCN(Cc3ccc(C(F)(F)F)cc3)CC2)c1O | 0.60 |
| O=c1cc(CCl)oc(CN2CCN(c3ccc([N+](=O)[O-])cc3)CC2)c1O | 1.20 |
| Cc1cccc(N2CCN(Cc3oc(CCl)cc(=O)c3O)CC2)c1C | 0.90 |
| O=c1cc(CCl)occ1O | 0.30 |

---

# method: Cytotoxicity against human HeLa cells
# Type: cell-based
# recorded.conditions: read-out: MNCC

| smiles.code | MNTC |
| --- | --- |
| O=c1cc(CCl)oc(CN2CCN(C3CCCCC3)CC2)c1O | ≥ 512 µg/mL |
| Cc1ccccc1N1CCN(Cc2oc(CCl)cc(=O)c2O)CC1 | ≥ 128 µg/mL |
| O=c1cc(CCl)oc(CN2CCN(Cc3ccc(Cl)cc3)CC2)c1O | ≥ 128 µg/mL |
| O=c1cc(CCl)oc(CN2CCN(Cc3ccc(C(F)(F)F)cc3)CC2)c1O | ≥ 512 µg/mL |
| O=c1cc(CCl)oc(CN2CCN(Cc3cc(F)ccc3F)CC2)c1O | ≥ 256 µg/mL |
| O=c1cc(CCl)oc(CN2CC=C(c3ccc(Cl)cc3)CC2)c1O | ≥ 256 µg/mL |
| Cc1cccc(CN2CCN(Cc3oc(CCl)cc(=O)c3O)CC2)c1 | ≥ 512 µg/mL |
| Cc1ccc(N2CCN(Cc3oc(CCl)cc(=O)c3O)CC2)cc1 | ≥ 64 µg/mL |
| O=c1cc(CCl)oc(CN2CCN(c3ccc([N+](=O)[O-])cc3)CC2)c1O | ≥ 512 µg/mL |
| O=c1cc(CCl)oc(CN2CCN(CC3CCCCC3)CC2)c1O | ≥ 256 µg/mL |
| O=c1cc(CCl)occ1O | ≥ 256 µg/mL |
| O=c1cc(CCl)oc(CN2CCN(Cc3cccc(C(F)(F)F)c3)CC2)c1O | ≥ 512 µg/mL |

---

# method: Antidermatophytic activity against Trichophyton mentagrophytes var. erinacei NCPF 375 after 7 days by broth microdilution method
# Format: functional
# recorded.conditions: Arthroderma benhamiae
measure.name: log10(MIC) (log10 of the value in µg/mL)

| compound | recorded.result |
| --- | --- |
| O=C(OCc1ccccc1)N1CCN(Cc2oc(CCl)cc(=O)c2O)CC1 | 0.60 |
| O=c1cc(CCl)oc(CN2CC=C(c3ccc(F)cc3)CC2)c1O | 1.20 |
| O=c1cc(CCl)oc(CN2CCN(CC3CCCCC3)CC2)c1O | 0.60 |
| O=c1cc(CCl)oc(CN2CCN(c3ccccc3F)CC2)c1O | 0.90 |
| O=c1cc(CCl)oc(CN2CC=C(c3ccc(Cl)cc3)CC2)c1O | 0.90 |
| COC1=CC(=O)C[C@@H](C)[C@]12Oc1c(Cl)c(OC)cc(OC)c1C2=O [GRISEOFULVIN] | -0.30 |
| O=c1cc(CCl)oc(CN2CCN(Cc3cccc(C(F)(F)F)c3)CC2)c1O | 0.60 |
| O=c1cc(CCl)oc(CN2CCN(c3ccc([N+](=O)[O-])cc3)CC2)c1O | 1.20 |
| Cc1ccccc1CN1CCN(Cc2oc(CCl)cc(=O)c2O)CC1 | 1.20 |
| O=c1cc(CCl)oc(CN2CCN(Cc3c(Cl)cccc3Cl)CC2)c1O | 0.60 |
| O=c1cc(CCl)oc(CN2CCN(C3CCCCC3)CC2)c1O | 1.20 |
| CN(C/C=C/C#CC(C)(C)C)Cc1cccc2ccccc12 [TERBINAFINE] | -0.90 |
| O=C(C1CCCCC1)N1CCN(Cc2oc(CCl)cc(=O)c2O)CC1 | 0.90 |
| O=c1cc(CCl)oc(CN2CCN(Cc3ccccc3)CC2)c1O | 1.20 |
| O=c1cc(CCl)oc(CN2CCN(c3ccc(F)cc3)CC2)c1O | 0.90 |
| O=c1cc(CCl)oc(CN2CCN(c3ccccc3)CC2)c1O | 0.90 |
| O=c1cc(CCl)oc(CN2CCN(c3ccc(C(F)(F)F)cc3)CC2)c1O | 1.51 |
| O=c1cc(CCl)oc(CN2CCN(Cc3cc(F)ccc3F)CC2)c1O | 0.60 |
| CCC(C)n1ncn(-c2ccc(N3CCN(c4ccc(OCC5COC(Cn6cncn6)(c6ccc(Cl)cc6Cl)O5)cc4)CC3)cc2)c1=O (configuration not stated) [ITRACONAZOLE] | -0.60 |
| O=c1cc(CCl)oc(CN2CC=C(c3ccccc3)CC2)c1O | 0.90 |
| O=c1cc(CCl)occ1O | 0.60 |
| O=c1cc(CCl)oc(CN2CCN(Cc3ccc(Cl)cc3)CC2)c1O | 0.60 |

---

Entries and their measured MNTC follow.
# method: Cytotoxicity against human MRC5 cells
# Type: cell-based
# recorded.conditions: read-out: MNCC
measure.name: MNTC

| smiles.code | recorded.result |
| --- | --- |
| Cc1ccccc1CN1CCN(Cc2oc(CCl)cc(=O)c2O)CC1 | ≥ 512 µg/mL |
| O=C(C1CCCCC1)N1CCN(Cc2oc(CCl)cc(=O)c2O)CC1 | ≥ 128 µg/mL |
| CC(=O)c1ccc(N2CCN(Cc3oc(CCl)cc(=O)c3O)CC2)cc1 | ≥ 512 µg/mL |
| O=C(OCc1ccccc1)N1CCN(Cc2oc(CCl)cc(=O)c2O)CC1 | ≥ 128 µg/mL |
| O=c1cc(CCl)oc(CN2CCN(CC3CCCCC3)CC2)c1O | ≥ 512 µg/mL |
| O=c1cc(CCl)oc(CN2CCN(Cc3c(Cl)cccc3Cl)CC2)c1O | ≥ 512 µg/mL |
| O=c1cc(CCl)occ1O | ≥ 256 µg/mL |
| O=c1cc(CCl)oc(CN2CCN(C3CCCCC3)CC2)c1O | ≥ 512 µg/mL |
| O=c1cc(CCl)oc(CN2CC=C(c3ccc(Cl)cc3)CC2)c1O | ≥ 256 µg/mL |
| O=c1cc(CCl)oc(CN2CCN(c3ccc(F)cc3)CC2)c1O | ≥ 128 µg/mL |
| O=c1cc(CCl)oc(CN2CCN(Cc3ccc(C(F)(F)F)cc3)CC2)c1O | ≥ 512 µg/mL |
| Cc1cccc(N2CCN(Cc3oc(CCl)cc(=O)c3O)CC2)c1C | ≥ 256 µg/mL |
| O=c1cc(CCl)oc(CN2CCN(c3ccccc3)CC2)c1O | ≥ 256 µg/mL |
| Cc1ccc(N2CCN(Cc3oc(CCl)cc(=O)c3O)CC2)cc1 | ≥ 64 µg/mL |
| O=c1cc(CCl)oc(CN2CC=C(c3ccc(F)cc3)CC2)c1O | ≥ 256 µg/mL |
